Where these numbers come from: patent US20250270304A1

Biological target: T1, Inhibin A (Homo sapiens (Human), UniProt P05111 233-366; P08476 311-426)
T1 sequence 1: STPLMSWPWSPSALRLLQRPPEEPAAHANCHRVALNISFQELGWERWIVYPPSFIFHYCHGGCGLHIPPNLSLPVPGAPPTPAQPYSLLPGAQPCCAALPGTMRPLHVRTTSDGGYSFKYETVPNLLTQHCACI
T1 sequence 2: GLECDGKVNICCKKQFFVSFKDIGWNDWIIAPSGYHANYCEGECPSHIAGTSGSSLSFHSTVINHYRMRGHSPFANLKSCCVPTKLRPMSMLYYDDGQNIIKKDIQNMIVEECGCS
Assay: ELISA, coated antigen, OD450
Measured Attribute: fold-change of OD 450 over negative control (BSA) (fold)
Answer in fold, number only, no unit symbol.

Answer with the recorded fold-change of OD 450 over negative control (BSA) of AB353 (antibody, IgG1, V domains shown) VH: QVQLQESGPGLVKPSQTLSLTCTVSGLSLSNAKMGVNWIRQPPGKGLEWIGYVSTTGTTDYNPSLKSRVTMSVDTSKNQFSLKVNSVTAADTAVYYCARAGYPDVWGKGTTVTVSS VL: EIVMTQSPATLSLSPGERATLSCRASQNVYTNLAWYQQKPGQAPRLLIYGASARASGIPARFSGSGSGTDFTLTISSLEPEDFAVYYCLQYGSSPPLFGGGTKVEIK only.
0.61

Supply recorded fold-change of OD 450 over negative control (BSA) for AB340 (antibody, IgG1, V domains shown) VH: EVQLVESGGGLVQPGGSLRLSCAASGFTASRNYMSWVRQAPGKGLELVASISGSGDYTYYPDSVKGRFTISRDNAKNSLYLQMNSLRAEDTAVYYCARSPRGPRLLGYYYGMDVWGQGTTVTVSS VL: DIVMTQSPLSLPVTPGEPASISCRSSRSLVHGSGHNYLHWYLQKPGQSPQLLIYGASTRVAGVPDRFSGSGSGTDFTLKISRVEAEDVGVYYCMQGTQAPRTFGGGTKVEIK here.
1.11

For the binder AB426 (antibody, IgG1, V domains shown) VH: EVQLVESGGGLVQPGGSLRLSCAASGFTFSDHHMSWVRQAPGKGLELVASISPSGDFTYYPDSVKGRFTISRDNAKNSLYLQMNSLRAEDTAVYYCARDVSPVYYWGQGALVTVSS VL: DIVMTQSPLSLPVTPGEPASISCRSSQSLLHWYLQKPGQSPQLLIYMGSQRAAGVPDRFSGSGSGTDFTLKISRVEAEDVGVYYCQSGVTFGGGTKVEIK , give its reported fold-change of OD 450 over negative control (BSA).
4.84

# return recorded fold-change of OD 450 over negative control (BSA) for input AB843 (antibody, IgG1, V domains shown) VH: EVQLVQSGAEVKKPGASVKVSCKASGDTSSHSHIHWVRQAPGQGLEWMGWINPRSGATNYAQKLQGRGTMTTDPSTSTAYMELRSLRSDDTAVYYCARDRGGRTNGVGAFDIWGQGTMVTVSS VL: ESALTQPASVSGSPGQSITISCTGTSGDIGRYNYVSWYQQHPGKAPKLMIYEDIERPSGVSNRFSGSKSGNTASLTISGLQAEDEADYYCQVWDATLDLVFGGGTKLTVL
22.9

Tell us which fold-change of OD 450 over negative control (BSA) value is on record for AB430 (antibody, IgG1, V domains shown) VH: EVQLVESGGGLVQPGGSLRLSCAASGFTLSNYPMSWVRQAPGKGLELVASTTSGSSTIYYPDSVKGRFTISRDNAKNSLYLQMNSLRAEDTAVYYCARGPDYYAPLRSYMDVWGKGTTVTVSS VL: DIVMTQSPLSLPVTPGEPASISCRSSQSLQQSEGRTYLHWYLQKPGQSPQLLIYDASKRASGVPDRFSGSGSGTDFTLKISRVEAEDVGVYYCMQVLRTPITFGGGTKVEIK
0.86
